System: B16-F10 murine melanoma
Experiment: In vitro cytotoxicity assay, B16-F10 murine melanoma
Type: cell-based
Conditions: B16-F10 murine melanoma; two values per compound; four-fold serial dilution
measured-parameter: In vitro cytotoxicity IC50, B-16-F10 (µg/mL)

>  <compound>
CC(=O)NC1=CC([C@@H]2c3cc4c(cc3[C@@H](O[C@@H]3O[C@@H]5CO[C@@H](C)O[C@H]5[C@H](O)[C@H]3O)[C@H]3COC(=O)[C@@H]32)OCO4)=CC(=O)C1=O [Example 28]

>  <assay-value>
81

$$$$
>  <compound>
COc1ccc(C=Nc2cc([C@@H]3c4cc5c(cc4[C@@H](O[C@@H]4O[C@@H]6CO[C@@H](C)O[C@H]6[C@H](O)[C@H]4O)[C@H]4COC(=O)[C@H]34)OCO5)cc(OC)c2O)cc1 [Example 20]

>  <assay-value>
19.8

$$$$
>  <compound>
COc1cc([C@@H]2c3cc4c(cc3[C@@H](O[C@@H]3O[C@@H]5CO[C@@H](C)O[C@H]5[C@H](O)[C@H]3O)[C@H]3COC(=O)[C@H]23)OCO4)cc(N=Cc2cc(OC)c(OC)c(OC)c2)c1O [Example 21]

>  <assay-value>
4.3

$$$$
>  <compound>
COc1cc([C@@H]2c3cc4c(cc3[C@@H](O[C@@H]3O[C@@H]5CO[C@@H](C)O[C@H]5[C@H](O)[C@H]3O)[C@H]3COC(=O)[C@H]23)OCO4)cc([N+]#N)c1[O-] [Example 25]

>  <assay-value>
25

$$$$
>  <compound>
C[C@@H]1OC[C@H]2O[C@@H](O[C@@H]3c4cc5c(cc4[C@@H](C4=CC(=O)C(=O)C(NC(=O)NCCCl)=C4)[C@H]4C(=O)OC[C@@H]43)OCO5)[C@H](O)[C@@H](O)[C@@H]2O1 [Example 29]

>  <assay-value>
38

$$$$
>  <compound>
COc1cc([C@@H]2c3cc4c(cc3[C@@H](O[C@@H]3O[C@@H]5CO[C@@H](C)O[C@H]5[C@H](O)[C@H]3O)[C@H]3COC(=O)[C@H]23)OCO4)cc(NC(=O)NCc2ccccc2)c1O [Example 11]

>  <assay-value>
40

$$$$
>  <compound>
COc1cc([C@@H]2c3cc4c(cc3[C@@H](O[C@@H]3O[C@@H]5CO[C@@H](C)O[C@H]5[C@H](O)[C@H]3O)[C@H]3COC(=O)[C@H]23)OCO4)cc([N+](=O)[O-])c1O [Example 24, 3'-Desmethoxy-3'-nitro etoposide]

>  <assay-value>
50

$$$$
>  <compound>
COc1cc([C@@H]2c3cc4c(cc3[C@@H](O[C@@H]3O[C@@H]5CO[C@@H](C)O[C@H]5[C@H](O)[C@H]3O)[C@H]3COC(=O)[C@H]23)OCO4)cc(NCN2C(=O)CCC2=O)c1O [Example 13]

>  <assay-value>
8.7

$$$$
>  <compound>
COc1cc([C@@H]2c3cc4c(cc3[C@@H](O[C@@H]3O[C@@H]5CO[C@@H](C)O[C@H]5[C@H](O)[C@H]3O)[C@H]3COC(=O)[C@H]23)OCO4)cc(N=Cc2cccc([N+](=O)[O-])c2)c1O [Example 22]

>  <assay-value>
14.1

$$$$
